// data source = PubChem BioAssay

testSummary: viability gain of MRP-1-high H69AR cells under doxorubicin, pilot screen, MRP-1 activator project, CellTiter-Glo, duplicate (AID 807);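 note: compound pretreatment 18-22 h then 72 h combined with doxorubicin; 0% = doxorubicin alone and 100% = vehicle without doxorubicin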
appliedConditions: H69AR viability with doxorubicin, CellTiter-Glo luminescence; at 10 µM; active compounds read high
observable: viability increase (%)

# compound, recordedValue
rows = [
    ("CC1CCN(C(=O)c2ccc(NC(=O)C3CCCO3)cc2)CC1 (centres undefined)", -0.41),
    ("CCOC(=O)N1CCN(C(=O)c2ccc3c(SCC(=O)O)c4c(nc3c2)CCC4)CC1", -1.86),
    ("O=C(OCCN1C(=O)c2ccccc2C1=O)c1cccs1", -1.54),
    ("COC(=O)c1c(NC(=O)CCN2CCOCC2)sc2c1CCCC2", -6.91),
    ("CCN1CCN(Cc2nc3c(c(=O)n(C)c(=O)n3C)n2Cc2ccccc2Cl)CC1", -3.38),
    ("CCOC(=O)C1CCN(C(=O)c2ccc(Cl)c(NC3=NC4CS(=O)(=O)CC4S3)c2)CC1 (centres undefined)", -0.09),
    ("CS(=O)(=O)N1CCN(c2nc(-c3ccccc3)cs2)CC1", 0.2),
    ("CCOC(=O)c1c(N)sc(C(N)=O)c1C", -1.19),
    ("C=CCNc1nc2c(c(=O)n(C)c(=O)n2C)n1CC(=C)C", -0.38),
    ("O=C1C2CC=C(Cl)CC2C(=O)N1CC1Cc2ccccc2CO1 (centres undefined)", 1.29),
    ("C=CCn1c(-c2ccco2)n[nH]c1=S", -1.3),
    ("O=S(=O)(NCc1ccc2c(c1)OCO2)c1cnc[nH]1", 1.17),
    ("C=CCNc1nc2c(c(=O)n(C)c(=O)n2C)n1CC", -2.38),
    ("Cn1c2ccc(CC(=O)O)cc2c2cc(CC(=O)O)ccc21", -3.54),
    ("COc1ccccc1C(=O)n1nc(-c2cccnc2)nc1N", -0.72),
    ("CCc1ccc(C2CC(c3ccccc3Cl)Nc3nc(N)nn32)cc1 (centres undefined)", -2.66),
    ("COc1ccc(-c2ccc(=O)n(CC(=O)N3CCN(c4ccccc4OC)CC3)n2)cc1", 2.33),
    ("Cc1cccc(CSc2nnc(-c3ccccn3)n2N)c1", -2.01),
    ("N#Cc1ccc(Oc2cccc(C(=O)O)c2)cc1C#N", -0.11),
    ("Cc1ccc(S(=O)(=O)/N=C/c2ccco2)cc1", -1.73),
    ("CSc1cccc(NC(=O)CN(c2ccc(C)cc2C)S(C)(=O)=O)c1", -1.07),
    ("Cc1nc2ccccn2c1C(=O)NC1CCCCC1", -1.3),
    ("NC(=O)c1nc(C2CCCCC2)nc2c1[nH]c(=O)n2-c1ccc(F)cc1", -3.71),
    ("CCCn1c(NCc2ccc(N(C)C)cc2)nc2ccccc21", -1.82),
]
